assayed_target: UniProt Q9UGI0
Sequence (Q9UGI0 whole entry, the tested form may be a part): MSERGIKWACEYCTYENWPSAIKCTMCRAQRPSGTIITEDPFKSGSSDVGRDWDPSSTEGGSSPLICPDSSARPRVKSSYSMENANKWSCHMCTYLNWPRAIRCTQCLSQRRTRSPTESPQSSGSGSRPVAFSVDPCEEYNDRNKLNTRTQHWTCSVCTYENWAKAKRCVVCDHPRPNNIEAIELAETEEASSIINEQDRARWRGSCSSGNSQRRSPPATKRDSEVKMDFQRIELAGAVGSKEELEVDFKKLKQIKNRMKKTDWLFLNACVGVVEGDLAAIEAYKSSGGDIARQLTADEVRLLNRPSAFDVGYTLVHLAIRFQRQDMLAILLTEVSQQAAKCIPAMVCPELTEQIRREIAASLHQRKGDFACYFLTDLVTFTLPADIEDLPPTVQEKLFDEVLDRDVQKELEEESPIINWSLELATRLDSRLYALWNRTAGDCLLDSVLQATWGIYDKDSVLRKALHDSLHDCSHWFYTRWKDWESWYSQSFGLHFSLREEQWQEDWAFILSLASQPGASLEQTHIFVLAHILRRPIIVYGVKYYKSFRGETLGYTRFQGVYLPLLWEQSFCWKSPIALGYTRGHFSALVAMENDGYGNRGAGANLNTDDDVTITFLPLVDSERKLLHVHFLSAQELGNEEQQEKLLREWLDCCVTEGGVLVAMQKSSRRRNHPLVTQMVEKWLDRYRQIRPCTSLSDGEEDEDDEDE
assay_overview: log2 ratio of Biotin-Ahx-Ub-VS probe labelling (fragment/DMSO); higher = less target engagement (more negative = stronger competition), active = hit call of the paper (q ≤ 0.05, log2 ratio ≤ -1)
measurement_context: compound concentration: 200 uM; treatment time: 3 h
property_label: log2 ratio of Biotin-Ahx-Ub-VS probe labelling

>  <compound>
CC(O)CC1CCN(C(=O)CCl)CC1 (centres undefined)

>  <obs_value>
0.164

$$$$
>  <compound>
C/C(=C\CNC(=O)CCl)c1cnn(C)c1.Cl

>  <obs_value>
-0.0207

$$$$
>  <compound>
O=C(CCl)N1CCC(OCc2ccccc2F)CC1

>  <obs_value>
-0.394

$$$$
>  <compound>
Cc1ccc(C)c(Oc2ccc(CNC(=O)CCl)cn2)c1.Cl

>  <obs_value>
-0.886

$$$$
>  <compound>
CCCn1nccc1NC(=O)CCl

>  <obs_value>
-0.251

$$$$
>  <compound>
Cc1ncsc1CCNC(=O)CCl

>  <obs_value>
-0.0599

$$$$
>  <compound>
O=C(CCl)N1CCCC2CCCCC21 (centres undefined)

>  <obs_value>
-0.134

$$$$
>  <compound>
CCN(C(=O)CCl)C1CCCCC1

>  <obs_value>
0.069

$$$$
>  <compound>
Cl.O=C(CCl)N1CCN(Cc2ccccc2)CC1

>  <obs_value>
-0.536

$$$$
>  <compound>
Cc1n[nH]c(=O)c2c(NC(=O)CCl)oc(C)c12

>  <obs_value>
0.264

$$$$
>  <compound>
O=C(CCl)N1CCC[C@@H]1c1ccon1

>  <obs_value>
-0.626

$$$$
>  <compound>
O=C(CCl)N1CCc2sccc2C1

>  <obs_value>
-1.9

$$$$
>  <compound>
Cn1cc(CN(Cc2ccc(Cl)cc2)C(=O)CCl)cn1

>  <obs_value>
-0.327

$$$$
>  <compound>
O=C(CCl)N1CCC(C(=O)N2CCCCCC2)CC1

>  <obs_value>
-0.0376

$$$$

* * *

Listing of recorded log2 ratio of Biotin-Ahx-Ub-VS probe labelling by entry.
assayed_target: UCHL3 (UniProt P15374)
Sequence (P15374 whole entry, the tested form may be a part): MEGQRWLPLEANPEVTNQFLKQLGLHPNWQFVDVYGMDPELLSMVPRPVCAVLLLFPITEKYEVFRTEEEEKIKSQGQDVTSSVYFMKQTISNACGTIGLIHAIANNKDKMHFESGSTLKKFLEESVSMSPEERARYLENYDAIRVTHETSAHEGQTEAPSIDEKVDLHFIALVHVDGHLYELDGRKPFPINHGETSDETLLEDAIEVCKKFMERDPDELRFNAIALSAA
assay_overview: log2 ratio of Biotin-Ahx-Ub-VS probe labelling (fragment/DMSO); higher = less target engagement (more negative = stronger competition), active = hit call of the paper (q ≤ 0.05, log2 ratio ≤ -1)
measurement_context: compound concentration: 200 uM; treatment time: 3 h
property_label: log2 ratio of Biotin-Ahx-Ub-VS probe labelling

>  <compound>
O=C(CCl)N1CCOCC1C1CC1 (centres undefined)

>  <obs_value>
0.225

$$$$
>  <compound>
O=C(CCl)N1CC=C(c2c[nH]c3ccccc23)CC1

>  <obs_value>
0.00279

$$$$
>  <compound>
C/C(=C\CNC(=O)CCl)c1cnn(C)c1.Cl

>  <obs_value>
0.15

$$$$
>  <compound>
CC(NC(=O)CCl)c1ccc2[nH]ncc2c1 (centres undefined)

>  <obs_value>
0.289

$$$$
>  <compound>
NS(=O)(=O)c1ccc(Cl)c(NC(=O)CCl)c1

>  <obs_value>
0.209

$$$$
>  <compound>
CS(=O)(=O)c1ccc(NC(=O)CCl)cc1

>  <obs_value>
0.206

$$$$
>  <compound>
Cc1cccc(NC(=O)CCl)c1C

>  <obs_value>
-1.39

$$$$
>  <compound>
O=C(CCl)NCCc1cccc2ccccc12

>  <obs_value>
0.331

$$$$
>  <compound>
O=C(CCl)N1CCN(C(=O)N2CCCCC2)CC1

>  <obs_value>
-0.528

$$$$
>  <compound>
Cl.Cn1nccc1C(NC(=O)CCl)c1ccccc1 (centres undefined)

>  <obs_value>
0.209

$$$$
>  <compound>
Cc1n[nH]c2c1CN(C(=O)CCl)CC2

>  <obs_value>
-0.699

$$$$
>  <compound>
Cl.O=C(CN1CCN(C(=O)CCl)CC1)Nc1ccc(F)cc1

>  <obs_value>
0.501

$$$$
>  <compound>
O=C(CCl)N1CCC(C(O)c2ccc(F)cc2)CC1 (centres undefined)

>  <obs_value>
0.426

$$$$
>  <compound>
Cl.O=C(CCl)N1CCc2ncncc2C1

>  <obs_value>
0.176

$$$$
>  <compound>
O=C(CCl)NCC1(c2ccccc2)CC1

>  <obs_value>
0.255

$$$$
>  <compound>
O=C(CCl)N[C@H]1CC[C@@H](CO)CC1

>  <obs_value>
-0.884

$$$$
>  <compound>
Cc1nc(CC2CCN(C(=O)CCl)CC2)no1

>  <obs_value>
-0.269

$$$$
>  <compound>
Cc1c(NC(=O)CCl)c(=O)n(-c2ccccc2)n1C

>  <obs_value>
0.0974

$$$$
>  <compound>
Cc1n[nH]c(=O)c2c(NC(=O)CCl)oc(C)c12

>  <obs_value>
0.303

$$$$
>  <compound>
Cc1cccc(C(CNC(=O)CCl)N2CCOCC2)c1.Cl (centres undefined)

>  <obs_value>
0.278

$$$$
>  <compound>
Cc1cc(C2CCCN2C(=O)CCl)nn1C.Cl (centres undefined)

>  <obs_value>
0.3

$$$$
>  <compound>
Cc1ccc(N2CCC(NC(=O)CCl)C2=O)cc1 (centres undefined)

>  <obs_value>
0.299

$$$$
>  <compound>
O=C(CCl)N1CCc2sccc2C1

>  <obs_value>
-0.458

$$$$
>  <compound>
CC1Cc2ccccc2N1C(=O)CCl (centres undefined)

>  <obs_value>
0.164

$$$$
>  <compound>
O=C(CCl)NCCC1=CCCCC1

>  <obs_value>
0.284

$$$$
>  <compound>
CCc1c[nH]c(CNC(=O)CCl)n1.Cl

>  <obs_value>
0.0893

$$$$
>  <compound>
O=C(CCl)Nc1cc2c(cc1Cl)OCCCO2

>  <obs_value>
-0.323

$$$$
>  <compound>
CN(C)C(=O)c1ccc(NC(=O)CCl)cc1

>  <obs_value>
-0.282

$$$$
>  <compound>
O=C(CCl)N(Cc1ccsc1)C1CC1

>  <obs_value>
0.415

$$$$

* * *

assayed_target: COPS5 (UniProt Q92905)
Sequence (Q92905 whole entry, looked up, the tested form may be a part): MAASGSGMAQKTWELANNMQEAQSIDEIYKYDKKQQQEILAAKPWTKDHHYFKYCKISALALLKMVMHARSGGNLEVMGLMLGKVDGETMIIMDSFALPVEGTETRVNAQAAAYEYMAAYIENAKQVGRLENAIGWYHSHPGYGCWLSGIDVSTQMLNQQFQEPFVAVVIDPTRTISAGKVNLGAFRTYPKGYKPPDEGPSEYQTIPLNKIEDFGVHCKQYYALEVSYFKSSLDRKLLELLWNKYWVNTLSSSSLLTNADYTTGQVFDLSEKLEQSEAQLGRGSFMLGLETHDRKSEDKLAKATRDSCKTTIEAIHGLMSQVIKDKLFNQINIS
assay_overview: log2 ratio of Biotin-Ahx-Ub-VS probe labelling (fragment/DMSO); higher = less target engagement (more negative = stronger competition), active = hit call of the paper (q ≤ 0.05, log2 ratio ≤ -1)
measurement_context: compound concentration: 200 uM; treatment time: 3 h
This listing pairs molecules with measured log2 ratio of Biotin-Ahx-Ub-VS probe labelling.
property_label: log2 ratio of Biotin-Ahx-Ub-VS probe labelling

>  <molecule>
O=C(CCl)NCc1ccc(N2CCOCC2)c(F)c1

>  <obs_value>
-0.0355

$$$$
>  <molecule>
NC(=O)C1CCCN(C(=O)CCl)C1 (configuration not stated)

>  <obs_value>
0.0012

$$$$
>  <molecule>
CC(O)CC1CCN(C(=O)CCl)CC1 (configuration not stated)

>  <obs_value>
-0.25

$$$$
>  <molecule>
O=C(CCl)NC1CCN(C(=O)C2CCCCC2)CC1

>  <obs_value>
-0.188

$$$$
>  <molecule>
Cc1cc(C(=O)NC2CCN(C(=O)CCl)CC2)no1

>  <obs_value>
0.0469

$$$$
>  <molecule>
O=C(CCl)NC1CCOc2ccccc21 (configuration not stated)

>  <obs_value>
-0.296

$$$$
>  <molecule>
O=C(CCl)Nc1ccc(F)cc1F

>  <obs_value>
-0.115

$$$$

* * *

assayed_target: USP39 (UniProt Q53GS9)
Sequence (Q53GS9 whole entry, the tested form may be a part): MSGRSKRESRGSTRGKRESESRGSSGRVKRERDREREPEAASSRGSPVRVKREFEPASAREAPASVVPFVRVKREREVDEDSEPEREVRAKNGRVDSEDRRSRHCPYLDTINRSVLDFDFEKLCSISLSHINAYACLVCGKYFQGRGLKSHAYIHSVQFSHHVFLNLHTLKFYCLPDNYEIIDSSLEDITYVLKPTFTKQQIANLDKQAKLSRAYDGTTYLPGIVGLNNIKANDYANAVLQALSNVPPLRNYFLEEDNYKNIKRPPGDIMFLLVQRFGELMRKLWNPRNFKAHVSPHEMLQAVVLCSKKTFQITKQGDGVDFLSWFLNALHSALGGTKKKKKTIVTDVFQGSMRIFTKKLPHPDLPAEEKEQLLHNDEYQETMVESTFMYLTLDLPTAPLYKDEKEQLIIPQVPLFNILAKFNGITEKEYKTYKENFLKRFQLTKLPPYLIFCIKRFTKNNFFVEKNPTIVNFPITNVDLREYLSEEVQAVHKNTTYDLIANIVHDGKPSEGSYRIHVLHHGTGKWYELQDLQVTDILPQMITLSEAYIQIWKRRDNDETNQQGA
assay_overview: log2 ratio of Biotin-Ahx-Ub-VS probe labelling (fragment/DMSO); higher = less target engagement (more negative = stronger competition), active = hit call of the paper (q ≤ 0.05, log2 ratio ≤ -1)
measurement_context: compound concentration: 200 uM; treatment time: 3 h
log2 ratio of Biotin-Ahx-Ub-VS probe labelling for assorted compounds
property_label: log2 ratio of Biotin-Ahx-Ub-VS probe labelling

>  <compound>
O=C(O)C1Cc2ccccc2CN1C(=O)CCl (centres undefined)

>  <obs_value>
-0.281

$$$$
>  <compound>
O=C(CCl)NC1CCCCNC1=O (centres undefined)

>  <obs_value>
0.0502

$$$$
>  <compound>
O=C(CCl)N1CCN(c2nc3ccccc3o2)CC1

>  <obs_value>
-0.00936

$$$$
>  <compound>
CC1Cc2ccccc2N1C(=O)CCl (centres undefined)

>  <obs_value>
-0.0124

$$$$
>  <compound>
COc1ccccc1C(C)NC(=O)CCl (centres undefined)

>  <obs_value>
-0.155

$$$$
>  <compound>
CCN1C(=O)C2CN(C(=O)CCl)CCN2C1=O (centres undefined)

>  <obs_value>
-0.0577

$$$$
>  <compound>
O=C(CCl)N1CCN2C(=O)CCC2C1 (centres undefined)

>  <obs_value>
-0.106

$$$$
>  <compound>
CC(=O)Nc1ccc(NC(=O)CCl)cc1

>  <obs_value>
0.432

$$$$
>  <compound>
O=C(CCl)N[C@H]1CC[C@@H](CO)CC1

>  <obs_value>
-0.098

$$$$
>  <compound>
Cl.Cn1ncc2c1CCCC2NC(=O)CCl (centres undefined)

>  <obs_value>
-0.0961

$$$$
>  <compound>
O=C(CCl)N1CCC(OCc2ccccc2F)CC1

>  <obs_value>
0.264

$$$$
>  <compound>
Cc1ccc(C)c(Oc2ccc(CNC(=O)CCl)cn2)c1.Cl

>  <obs_value>
0.00552

$$$$
>  <compound>
Cc1ccc(N(CCC#N)C(=O)CCl)cc1C

>  <obs_value>
0.18

$$$$
>  <compound>
CC(NC(=O)CCl)c1csc(-c2ccccc2)n1.Cl (centres undefined)

>  <obs_value>
0.0283

$$$$
